experiment: duplex melting temperature (HRM, EvaGreen); higher = more stable duplex; details: duplex concentration 5 µM; backbone: PS-PS (both strands fully phosphorothioate)
reported endpoint: duplex melting temperature
Field note: include the unit after the figure.

[[record]]
ordered_residues = "GCTGAACTAACCACCA"
reported_endpoint = "duplex melting temperature"
experimental_value = "52.5 °C"

[[record]]
ordered_residues = "ACTCGCTCTACCTTAAT"
reported_endpoint = "duplex melting temperature"
experimental_value = "52.4 °C"

[[record]]
ordered_residues = "ACTGTATCGCCCTA"
reported_endpoint = "duplex melting temperature"
experimental_value = "50.2 °C"

[[record]]
ordered_residues = "CGGTGCTTTTGGTAGC"
reported_endpoint = "duplex melting temperature"
experimental_value = "53.9 °C"

[[record]]
ordered_residues = "AATGTCGAACAGCAATT"
reported_endpoint = "duplex melting temperature"
experimental_value = "53 °C"

[[record]]
ordered_residues = "TCTCGCGGTTCCATTA"
reported_endpoint = "duplex melting temperature"
experimental_value = "57.3 °C"

[[record]]
ordered_residues = "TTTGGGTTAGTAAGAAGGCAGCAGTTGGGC"
reported_endpoint = "duplex melting temperature"
experimental_value = "67.7 °C"

[[record]]
ordered_residues = "AATGAGGAGTGAAATGG"
reported_endpoint = "duplex melting temperature"
experimental_value = "50.5 °C"


Now look at this entry.
[Q] Any idea what its duplex melting temperature is? The sequence is `CCCAGGCCTCGGATTTA`
[A] 61.7 °C

* * *

test: duplex formation enthalpy ΔH (Van't Hoff fit of HRM Tm); higher = less exothermic duplex formation; conditions: temperature for dG: 50 °C; NaCl: 500 mM (unadjusted); backbone: PS-PO (listed strand fully phosphorothioate, complement phosphodiester)
# Lookup of reported duplex formation enthalpy ΔH keyed by entry
Field note: include the unit after the figure.

Examples with answers:
[[record]]
ordered_residues = "CGTGTGGATAATTAGCT"
experimental_value = "-81 kcal/mol"

[[record]]
ordered_residues = "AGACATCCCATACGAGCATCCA"
experimental_value = "-124 kcal/mol"

[[record]]
ordered_residues = "GTGGTACAAATGCGACC"
experimental_value = "-80.9 kcal/mol"


[Q] Any idea what its duplex formation enthalpy ΔH is? The sequence is `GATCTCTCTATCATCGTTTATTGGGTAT`
[A] -122 kcal/mol

[Q] Any idea what its duplex formation enthalpy ΔH is? The sequence is `CTGTAAGGCGATATGTT`
[A] -72.7 kcal/mol

[Q] Any idea what its duplex formation enthalpy ΔH is? The sequence is `AGCTGAGCCTGCCGCC`
[A] -69.1 kcal/mol

[Q] Any idea what its duplex formation enthalpy ΔH is? The sequence is `ACTGTATCGCCCTA`
[A] -56.7 kcal/mol

[Q] Any idea what its duplex formation enthalpy ΔH is? The sequence is `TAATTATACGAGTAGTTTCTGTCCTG`
[A] -115 kcal/mol

[Q] Any idea what its duplex formation enthalpy ΔH is? The sequence is `TCTCGCGGTTCCATTA`
[A] -64.3 kcal/mol

* * *

# Lookup of reported duplex melting temperature keyed by entry
experiment: duplex melting temperature (HRM, EvaGreen); higher = more stable duplex; details: duplex concentration 5 µM; backbone: PS-PS (both strands fully phosphorothioate)
Respond numerically; units are °C and should not be typed.

[[record]]
ordered_residues = "CCACTAGCGGCGCCGTT"
uom = "°C"
experimental_value = 67.5

[[record]]
ordered_residues = "GTCATTGTGCTTTTGC"
uom = "°C"
experimental_value = 48.6

[[record]]
ordered_residues = "CGATTTTGTCAAGCCT"
uom = "°C"
experimental_value = 50.1

[[record]]
ordered_residues = "CTGTAAGGCGATATGTT"
uom = "°C"
experimental_value = 51.3

[[record]]
ordered_residues = "CCGTTGCTGCTAGG"
uom = "°C"
experimental_value = 53.4


Now look at this entry.
[Q] Any idea what its duplex melting temperature is? The sequence is `CACAGCGACATGTATGG`
[A] 56
